testReadout: melting point

compound	result
O=C1CCN(c2nc(=O)c3cccnc3s2)CC1	222 to 225 °C
COc1cc2c(cc1OC)C(c1ccccc1N)=NN=C(C)C2	172 to 174 °C
Cc1ccc(Br)c2occc12	32 to 33 °C
CC(=O)N1c2c(ccn3c(C)c(C)nc23)[C@@H](O)[C@H](OC(=O)C(C)(C)C)[C@H]1c1ccccc1	103 to 105 °C
COc1cc2c(c(C)c1C)C(=O)CC2c1c[nH]cn1 (stereo unspecified)	258 to 261 °C
Cc1cc(OCC(=O)c2ccc(C(C)C)cc2)cc(C)c1C	96 to 98 °C
Cc1ccc(S(=O)(=O)N(C)c2ccc(Cl)cc2CO)cc1	130 to 132 °C
CC(=O)OC1(C)CN(C(=O)Nc2ccc(C(F)(F)F)cc2)N=C1c1ccc(Cl)cc1 (stereo unspecified)	92 to 96 °C
C[C@]1(N2Cc3c(OCc4ccc(CN5CCOCC5)cc4)cccc3C2=O)CCC(=O)NC1=O	178 to 180 °C
O=[N+]([O-])c1cn2c(n1)OC(COc1ccc(-c3csc(Cc4ccc(OC(F)(F)F)cc4)n3)cc1)CC2 (stereo unspecified)	222 to 224 °C
CCOC(=O)N1CCN(c2cc3nc(C(C)(C)C)sc3cc2N)CC1	215 to 220 °C
COc1ccc(Cn2ncnc2CO)cc1	95 to 100 °C
O=C(NC1N=C(c2ccccc2F)c2ccccc2NC1=O)c1ccc(C(F)(F)F)cc1 (racemic)	209 to 211 °C
O=C(O)c1ncn2c1Cn1ccnc1-c1sccc1-2	225 to 227 °C
O=c1c2ccccc2nnn1CCN1CCC(c2c[nH]c3ccccc23)CC1	171 °C
CCOC(=O)c1cn(C[C@@H]2CN(c3ccc(N4CCC5(CC4)OCCO5)c(F)c3)C(=O)O2)nn1	168 to 170 °C
CC1NC(=O)C2=C1c1ccc(Cl)cc1C(c1ccccc1Cl)=NC2 (stereo unspecified)	239 to 241 °C
COc1cc2c(cc1OC)CN(c1c(C)c(C)c3c(c1C)C(c1ccccc1)C(C)(C)O3)C2 (stereo unspecified)	154 to 157 °C
COc1ccc2c(c1OCc1ccccc1)CC(C(=O)O)N(C(=O)C(c1ccc(Cl)cc1)c1ccc(Cl)cc1)C2 (racemic)	186 to 188 °C
ClC12CCCC(C1)C1CCC2C1 (stereo unspecified)	68 to 69 °C
COc1nc(C)nc(NC(=O)NS(=O)(=O)c2ccccc2-c2cnn(C)c2)n1	221 to 224 °C
CCCCc1oc2ccc([N+](=O)[O-])cc2c1C(=O)c1ccc(OCCBr)cc1	81 °C
CC(=O)OC1CCC2(C)C(=CCC3C2CCC2(C)C(C(C)=O)CCC32F)C1 (stereo unspecified)	128 °C
COc1ccc(C2=Nc3ccc(N4CCOCC4)cc3C(=O)C2)cc1	302 to 304 °C
CNC(=O)Oc1c(C)cc(C)c2c1CC(C)C2(C)C (stereo unspecified)	130 to 131 °C
CCCNC(=O)N(C)C1CCNCC1	84 to 86 °C
COC1=CC(=O)C(O)=C(CCCCCCC/C=C\CCCCCCCC2=C(O)C(=O)C(C)=C(OC)C2=O)C1=O	88 to 90 °C
O=C(O)C1CCN(c2nnc(NCc3ccc4c(c3)OCO4)c3cnccc23)CC1	205 to 206 °C
CN(C(=O)c1ccc(Cl)cc1)[C@@H]1CCN(C(=O)Nc2ccc(F)nc2)C[C@H]1c1ccc(Cl)c(Cl)c1	156 to 158 °C
O=C(Nc1ccc(-c2ccnc3c(C(=O)c4cccs4)cnn23)s1)c1ccccc1	162 to 165 °C
N#Cc1cccc(C=Cc2ccc(Cl)c(Cl)c2)n1	124 to 125 °C
C[C@]12CCC(=O)N[C@@H]1CCc1cc(Sc3ccc(F)cc3)ccc12	179 to 181 °C
COC(=O)Cc1ccc2nc(Nc3ccccc3C)oc2c1	128 to 129 °C
COC(=O)C1=C(O)c2sc(C(F)(F)F)cc2S(=O)(=O)N1	168 to 170 °C
CC(C)(C)OC(=O)N1CCN(c2ccc([N+](=O)[O-])cc2C#N)CC1	141 to 142 °C
Cc1cc(C)c(C(CO)c2ccccc2)c(O)c1C (stereo unspecified)	103 to 104 °C
O=C(c1cccs1)C(Br)c1ccc(F)cc1 (stereo unspecified)	182 to 189 °C
C=C[C@H](C)[C@@](N)(C(N)=O)c1ccccc1 (relative stereo)	90 °C
COC(=O)/C=C(/C#Cc1ccccc1)c1ccccc1	73 to 75 °C
COc1cccc(C2C(=O)c3ccccc3C2=O)c1	142 to 144 °C
COC(=O)c1ccc(N2CC(CNC(C)=S)OC2=O)cc1F (stereo unspecified)	152 to 154 °C
